System: JTY_0672 (TetR family transcriptional regulator) (Mycobacterium bovis BCG Tokyo 172)
methodSummary: BLI
recordedEndpoint: Kd (µM)

INSERT INTO assay_data (seq, recordedresult) VALUES
  ('ATTCATGGTCAGCGCCTTCCCCGGTGATCCGGATTATCTGCAACCGTCAG (double strand) [JTY_3148 promoter, 50 bp WT C13]', 5.03);

----------
testTarget: JTY_0672 (Mycobacterium tuberculosis, UniProt P96941)
Construct: gene Rv0653c
Sequence (P96941 entry or part of it): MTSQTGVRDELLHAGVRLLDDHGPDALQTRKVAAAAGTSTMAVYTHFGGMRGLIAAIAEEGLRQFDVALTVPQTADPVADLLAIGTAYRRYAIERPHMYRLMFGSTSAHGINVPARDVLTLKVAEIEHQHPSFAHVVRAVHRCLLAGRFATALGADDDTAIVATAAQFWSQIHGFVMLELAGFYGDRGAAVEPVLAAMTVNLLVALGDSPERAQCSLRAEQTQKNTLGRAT
Reported concentration influencing DNA binding values follow for various molecules
recordedEndpoint: concentration influencing DNA binding (mM)

INSERT INTO assay_data (molecule, unitabbreviation, recordedresult) VALUES
  ('N[C@@H](CC(=O)O)C(=O)O [Asp]', 'mM', 20),
  ('Cc1ncc(C[n+]2csc(CCO)c2C)c(N)n1 [VB1]', 'mM', 8),
  ('N[C@@H](CS)C(=O)O [Cys]', 'mM', 4),
  ('N[C@@H](CCC(=O)O)C(=O)O [Glu]', 'mM', 20),
  ('N[C@@H](Cc1cnc[nH]1)C(=O)O [His]', 'mM', 40),
  ('O=C(O)c1cccnc1 [VB3]', 'mM', 8),
  ('O=C1O[C@H]([C@@H](O)CO)C(O)=C1O [VC]', 'mM', 4);
